Reference source: patent US12391662B2

For each of the compounds below, state its Encapsulation Efficiency.
assay: LNP mRNA encapsulation efficiency (Quant-iT RiboGreen RNA Assay Kit); type: physicochemical; settings: LNP of Compound:cholesterol:DSPC:DMG-PEG2000=50:38.5:10:1.5 encapsulating mRNA
A number alone suffices; assume %.

Query string: Which Encapsulation Efficiency value belongs to CCCCC/C=C\C/C=C\CCCCCCCCC(CCCCCCCC/C=C\C/C=C\CCCCC)OC(=O)CCCN(C)C [MC3, reference compound] ?
Result string: 96.7

Query string: Which Encapsulation Efficiency value belongs to CCCCCCCCCCC(=O)OCCCCCCC1(CCCCCCCCOC(=O)C(CCCCCCCC)CCCCCCCC)OCC(CN(C)C)CO1 (stereo not shown) ?
Result string: 95.07

Query string: Which Encapsulation Efficiency value belongs to CCCCCCCCCCCOC(=O)CCCCCC1(CCCCCCCC(=O)OC(CCCCCCCC)CCCCCCCC)OCC(CCN(C)CC)O1 (stereo not shown) ?
Result string: 96.5

Query string: Which Encapsulation Efficiency value belongs to CCCCCCCCC(CCCCCC)C(=O)OCCCCCCC1(CCCCCCOC(=O)C(CCCCCC)CCCCCCCC)OCC(CCN(C)C)O1 (stereo not shown) ?
Result string: 96.8
